All figures here come from patent US11149018B2.

# IC50 listing for each entry below
# MEASUREMENT TARGET: FP receptor (Homo sapiens (Human), UniProt P43088)
# Sequence (P43088 whole entry): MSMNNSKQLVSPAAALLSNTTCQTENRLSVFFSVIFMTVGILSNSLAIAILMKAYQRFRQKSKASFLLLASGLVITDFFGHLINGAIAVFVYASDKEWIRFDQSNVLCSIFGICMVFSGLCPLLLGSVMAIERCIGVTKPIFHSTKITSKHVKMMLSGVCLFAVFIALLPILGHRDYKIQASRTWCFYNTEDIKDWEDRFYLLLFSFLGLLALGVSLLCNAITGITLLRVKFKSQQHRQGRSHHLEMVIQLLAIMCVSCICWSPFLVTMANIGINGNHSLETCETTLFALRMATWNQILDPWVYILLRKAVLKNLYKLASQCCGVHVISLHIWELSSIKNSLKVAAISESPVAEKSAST
# PROCEDURE TEXT: In vitro test of inhibition of human FP receptor activity (PGF2α-induced calcium flux in FP-expressing CHEM1 cells)
# RUN CONDITIONS: PGF2α 2 nM, some mean values of multiple determinations
# Procedure: B-1. In Vitro Test of Inhibition of Human FP Receptor Activity For the characterization of test substances in respect of FP antagonism, PGF2α-induced calcium flux in FP-expressing CHEM1 cells (Millipore, HTS093C) was used. 10 μl of the prediluted substance solution are added to the Fluo-8-laden cells and incubated at 37° C., 5% CO2 for 10 minutes. […]
Express the result in µM but write the number alone.

Solved entries (count: 3):
{"columns": ["MOLECULE", "IC50 / µM"],
 "data": [
  ["Cc1ccc(F)cc1C(CCC(=O)O)CNC(=O)c1c(C)c(N2CCCCC2)nc2ccc(Br)cc12 (single isomer, unassigned; (-)) [Example 148]", 0.0045],
  ["Cc1c(N2CCCC(F)C2)nc2ccc(Br)cc2c1C(=O)NCC(CCC(=O)O)c1ccccc1OC(F)(F)F (single isomer, unassigned; (+)) [Example 203]", 0.011],
  ["Cc1c(N2CCCC2)nc2ccc(Br)cc2c1C(=O)NCC(CCC(=O)O)c1c(F)cccc1C(F)(F)F (racemic) [Example 163]", 0.011]
]}

I am curious: what IC50 value has been reported for Cc1c(N2CCCC(F)(F)C2)nc2ccc(Br)cc2c1C(=O)NCC(CCC(=O)O)c1c(Cl)ccc(Cl)c1Cl (single isomer, unassigned; (-)) [Example 179] ?
0.0023

Same for Cc1c(N2CCCC2)nc2ccc(Br)cc2c1C(=O)NCC(CCC(=O)O)c1cc(F)ccc1F (single isomer, unassigned; (-)) [Example 260]
0.029

Can you handle CCC1CCCN(c2nc3ccc(Br)cc3c(C(=O)NCC(CCC(=O)O)c3cc(F)ccc3F)c2C)C1 (racemic) [Example 225] next?
0.0032

Repeat with Cc1c(N2CCCC(F)(F)C2)nc2ccc(Br)cc2c1C(=O)NCC(CCC(=O)O)c1c(F)cccc1F (single isomer, unassigned; (-)) [Example 252]
0.0094

Lookup Cc1c(N2CCCCC2)nc2ccc(Br)cc2c1C(=O)NCC(CCC(=O)O)c1c(Cl)ccc(F)c1F (racemic) [Example 144]
0.0022

And the next one, COC1CCN(c2nc3ccc(Br)cc3c(C(=O)NCC(CCC(=O)O)c3ccccc3Cl)c2C)C1 (stereo not drawn) ?
0.43

Consider next the molecule Cc1c(N2CCCO2)nc2ccc(Br)cc2c1C(=O)NCC(CCC(=O)O)c1ccccc1Cl (single isomer, unassigned; (-)) [Example 39] in the same way.
0.024

====

# MEASUREMENT TARGET: FP receptor (Homo sapiens (Human), UniProt P43088)
# PROCEDURE TEXT: In vitro test of inhibition of human FP receptor activity (PGF2α-induced calcium flux in FP-expressing CHEM1 cells)
# RUN CONDITIONS: PGF2α 2 nM, some mean values of multiple determinations
The following molecules are listed with their measured IC50 values.
Note: unit nM is implicit; provide only the numeric part.

{"columns": ["MOLECULE", "READOUT NUMBER"],
 "data": [
  ["CCC1CCCN(c2nc3ccc(Br)cc3c(C(=O)NCC(CCC(=O)O)c3ccccc3Cl)c2C)C1 (single isomer, unassigned; (-)) [Example 60]", 7.5]
]}

Turning to the following molecule.
Record lookup: for FP receptor (Homo sapiens (Human), UniProt P43088), what IC50 belongs to CCC1CCCN(c2nc3ccc(Br)cc3c(C(=O)NCC(CCC(=O)O)c3c(F)cccc3F)c2C)C1 (stereo not drawn) [Example 254] ?
2.8

====

# MEASUREMENT TARGET: FP receptor (Homo sapiens (Human), UniProt P43088)
# PROCEDURE TEXT: In vitro test of inhibition of human FP receptor activity (PGF2α-induced calcium flux in FP-expressing CHEM1 cells)
# RUN CONDITIONS: PGF2α 2 nM, some mean values of multiple determinations
Reported IC50 values follow for various compounds
Form entry: value (nM) — number only.

Could you share which IC50 value was measured for Cc1c(N2CC(F)C(F)C2)nc2ccc(Br)cc2c1C(=O)NCC(CCC(=O)O)c1ccccc1Cl (stereo not drawn) ?
42

Can you check Cc1c(N2CCC(F)(F)CC2)nc2ccc(Br)cc2c1C(=O)NCC(CCC(=O)O)c1ccccc1Cl (racemic) next?
31

Same lookup for Cc1c(N2CCCC(F)C2)nc2ccc(Br)cc2c1C(=O)NCC(CCC(=O)O)c1ccccc1Cl (single isomer, unassigned; (+)) [Example 188] , please.
6.1

Same for Cc1ccccc1C(CCC(=O)O)CNC(=O)c1c(C)c(N2CCCC2)nc2ccc(Br)cc12 (single isomer, unassigned; (+)) [Example 233]
84

Now the compound Cc1c(N2CCCC2)nc2ccc(Br)cc2c1C(=O)NCC(CCC(=O)O)c1c(F)cccc1F (single isomer, unassigned) [Example 248]
120

Also, COCCNc1nc2ccc(Br)cc2c(C(=O)NCC(CCC(=O)O)c2ccccc2Cl)c1C (racemic) please.
410

====

# MEASUREMENT TARGET: FP receptor (Homo sapiens (Human), UniProt P43088)
# PROCEDURE TEXT: In vitro test of inhibition of human FP receptor activity (PGF2α-induced calcium flux in FP-expressing CHEM1 cells)
# RUN CONDITIONS: PGF2α 2 nM, some mean values of multiple determinations
# Experimental: B-1. In Vitro Test of Inhibition of Human FP Receptor Activity For the characterization of test substances in respect of FP antagonism, PGF2α-induced calcium flux in FP-expressing CHEM1 cells (Millipore, HTS093C) was used. 10 μl of the prediluted substance solution are added to the Fluo-8-laden cells and incubated at 37° C., 5% CO2 for 10 minutes. […]
A collection of compounds and their measured IC50
Answer in nM, number only, no unit symbol.

{"columns": ["COMPOUND", "MEASUREMENT TARGET", "DISPLAY UNIT", "READOUT NUMBER"],
 "data": [
  ["Cc1c(N2CCSCC2)nc2ccc(Br)cc2c1C(=O)NCC(CCC(=O)O)c1ccccc1Cl (single isomer, unassigned; (+)) [Example 26]", "FP receptor (Homo sapiens (Human), UniProt P43088)", "nM", 21]
]}

Item Cc1c(N2CCCCC2)nc2ccc(Br)cc2c1C(=O)NCC(CCC(=O)O)c1cc(F)ccc1F (single isomer, unassigned; (-)) [Example 256] has what recorded IC50?
8.4

Now this one: COc1ccccc1C(CCC(=O)O)CNC(=O)c1c(C)c(N2CCCC(F)(F)C2)nc2ccc(Br)cc12 (single isomer, unassigned; (+)) [Example 289]
2.4

Follow-up entry: Cc1c(N2CCCC2)nc2ccc(Br)cc2c1C(=O)NCC(CCC(=O)O)c1ccccc1OC(F)(F)F (racemic) [Example 129]
6.1

Same question, Cc1c(N2CCCCC2)nc2ccc(Br)cc2c1C(=O)NCC(CCC(=O)O)c1ccccc1OC(F)(F)F (racemic) [Example 126] this time
1.7

Same for CCC1CCCN(c2nc3ccc(Br)cc3c(C(=O)NCC(CCC(=O)O)c3ccccc3Cl)c2C)C1 (single isomer, unassigned; (-)) [Example 59]
11

Also CCNc1nc2ccc(Br)cc2c(C(=O)NCC(CCC(=O)O)c2ccccc2Cl)c1C (racemic) [Example 109] ?
860

Param item: Cc1c(N2CCC(F)(F)CC2)nc2ccc(Br)cc2c1C(=O)NCC(CCC(=O)O)c1cc(F)ccc1Cl (racemic) [Example 8]
58

====

# MEASUREMENT TARGET: FP receptor (Homo sapiens (Human), UniProt P43088)
# PROCEDURE TEXT: In vitro test of inhibition of human FP receptor activity (PGF2α-induced calcium flux in FP-expressing CHEM1 cells)
# Type: cell-based
# RUN CONDITIONS: PGF2α 2 nM, some mean values of multiple determinations
PARAMETER: pIC50
pIC50 field: float, defined as -log10 of concentration (mol/L).

The following compounds have reported results that may help.
{"columns": ["COMPOUND", "pIC50"],
 "data": [
  ["CCC1CCCN(c2nc3ccc(Br)cc3c(C(=O)NCC(CCC(=O)O)c3c(Cl)ccc(Cl)c3Cl)c2C)C1 (stereo not shown) [Example 181]", 8.18],
  ["Cc1c(N2CCC(C)(F)C2)nc2ccc(Br)cc2c1C(=O)NCC(CCC(=O)O)c1ccccc1Cl (stereo not shown) [Example 71]", 6.96],
  ["Cc1c(N2CCCC(C)C2)nc2ccc(Br)cc2c1C(=O)NCC(CCC(=O)O)c1ccccc1Cl (single isomer, unassigned; (+)) [Example 48]", 8.92],
  ["Cc1c(N2CCCC(F)(F)C2)nc2ccc(Br)cc2c1C(=O)NCC(CCC(=O)O)c1c(F)cccc1F (single isomer, unassigned; (+)) [Example 251]", 7.14],
  ["Cc1c(N2CCCCC2)nc2ccc(Br)cc2c1C(=O)NCC(CCC(=O)O)c1c(F)cccc1F (racemic) [Example 244]", 7.92],
  ["Cc1c(N2CCCCCC2)nc2ccc(Br)cc2c1C(=O)NCC(CCC(=O)O)c1ccccc1OC(F)(F)F (racemic) [Example 135]", 8.52]
]}

Kindly consider the entry below.
Test system FP receptor (Homo sapiens (Human), UniProt P43088); read-out pIC50; what value for Cc1c(N2CC(C)CC(C)C2)nc2ccc(Br)cc2c1C(=O)NCC(CCC(=O)O)c1ccccc1Cl (stereo not shown) [Example 63] ?
8.14
